Reference source: the RNAGym collection of RNA variant scans (doi:10.7554/elife.90254)

Measured self-cleavage, listed per entry.
B1: LINE1-full (parent)
chain: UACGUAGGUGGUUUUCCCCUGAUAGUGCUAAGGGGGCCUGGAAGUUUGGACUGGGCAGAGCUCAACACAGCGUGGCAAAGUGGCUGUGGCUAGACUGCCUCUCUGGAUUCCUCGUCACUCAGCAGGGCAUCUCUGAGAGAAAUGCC

Variants of: B1
Protocol Summary: self-cleavage, relative activity (ratio to wild type); higher = more cleavage; in vitro, sequencing; the parent is a self-cleaving ribozyme
Form rule: numeric answer, no unit written next to it.

Solved entries:
G35A A69G; 0.21
U15G A50G; 0.18
U9G A79G; 0.63
C76A U81G; 0.33
A43G C76U; 1.66
U13A U47A; 1.01
C56U A59U; 0.11
G75A A117C; 1.31
A94C U119C; 0.1
G34U A140U; 1.64

[in] # lookup: self-cleavage of U96G U109A
[out] 0

[in] What measured self-cleavage goes with A67G U104C ?
[out] 0.96

[in] Item under review: G86A A121U . Reported self-cleavage?
[out] 0.26
